Just for reference, patent US20250236611A1 is where these values come from.

target: JAK3 (Homo sapiens); assay: JAK assay (KINASE-GLO luminescent kinase assay), JAK3; type: biochemical; conditions: 10 nM JAK enzyme, 800 nM Abl peptide, room temperature 75 min
Sequence (P52333 whole entry): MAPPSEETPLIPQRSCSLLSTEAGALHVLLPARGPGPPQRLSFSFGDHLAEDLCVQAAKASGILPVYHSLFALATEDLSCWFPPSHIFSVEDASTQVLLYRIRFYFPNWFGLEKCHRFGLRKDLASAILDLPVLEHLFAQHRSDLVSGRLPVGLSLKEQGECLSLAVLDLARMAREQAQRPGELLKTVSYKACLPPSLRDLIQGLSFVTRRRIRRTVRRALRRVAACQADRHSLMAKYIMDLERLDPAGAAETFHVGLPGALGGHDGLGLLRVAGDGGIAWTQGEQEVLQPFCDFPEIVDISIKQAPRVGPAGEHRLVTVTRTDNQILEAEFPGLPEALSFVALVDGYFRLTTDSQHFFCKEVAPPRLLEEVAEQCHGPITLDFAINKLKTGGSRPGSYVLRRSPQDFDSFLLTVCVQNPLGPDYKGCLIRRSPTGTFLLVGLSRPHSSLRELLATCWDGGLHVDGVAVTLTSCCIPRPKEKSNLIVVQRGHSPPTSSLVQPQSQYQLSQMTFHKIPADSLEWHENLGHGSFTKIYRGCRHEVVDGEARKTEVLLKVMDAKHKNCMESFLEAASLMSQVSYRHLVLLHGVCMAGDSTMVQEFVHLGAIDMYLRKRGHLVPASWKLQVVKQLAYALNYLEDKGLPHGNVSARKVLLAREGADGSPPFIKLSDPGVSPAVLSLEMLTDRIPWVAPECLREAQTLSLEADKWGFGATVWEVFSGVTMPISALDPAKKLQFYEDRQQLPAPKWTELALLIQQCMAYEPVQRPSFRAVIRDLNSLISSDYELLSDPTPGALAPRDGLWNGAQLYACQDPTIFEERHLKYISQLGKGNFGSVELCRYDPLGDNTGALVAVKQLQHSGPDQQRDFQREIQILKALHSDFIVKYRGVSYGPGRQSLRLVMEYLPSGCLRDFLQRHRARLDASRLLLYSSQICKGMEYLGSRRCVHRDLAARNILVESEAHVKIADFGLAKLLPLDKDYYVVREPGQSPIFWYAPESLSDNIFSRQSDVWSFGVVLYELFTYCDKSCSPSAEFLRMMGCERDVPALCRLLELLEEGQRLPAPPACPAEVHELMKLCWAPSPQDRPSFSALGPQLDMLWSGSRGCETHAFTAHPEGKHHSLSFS
observable: IC50

molecule: CNCc1cc(Nc2ncc(C)c(-c3cnn(CC4(CF)CC4)c3)n2)sn1 [CNCC1═NSC(═C1)NC2═NC(═C]
IC50: < 100 nM

Sure, the documented IC50 for CC(C)(C)OC(=O)NCc1cccc(Nc2ncc(Cl)c(-c3cnn(CC4(CF)CC4)c3)n2)c1 [CC(C)(C)OC(═O)NCC1═CC═CC] is < 10 nM

Sure, the documented IC50 for Cc1cnc(Nc2cnc(N3CCOCC3)nc2)nc1-c1cnn(CC2(CF)CC2)c1 [CC1═C(N═C(NC2═CN═C] is < 100 nM

Sure, the documented IC50 for COc1ccc(Nc2ncc(C)c(-c3cnn(CC4(CF)CC4)c3)n2)cn1 [COC1═CC═C(NC2═NC(═C] is < 100 nM

Sure, the documented IC50 for Cc1cnc(Nc2cccc(C(N)=O)c2)nc1-c1cnn(CC2(CF)CC2)c1 [CC1═C(N═C(NC2═CC(═CC═C2)C] is < 100 nM

====

target: TYK2 (Homo sapiens, UniProt P29597); experiment: JAK assay (KINASE-GLO luminescent kinase assay), TYK2; assay type: biochemical; details: 10 nM JAK enzyme, 800 nM Abl peptide, room temperature 75 min
Sequence (P29597 whole entry): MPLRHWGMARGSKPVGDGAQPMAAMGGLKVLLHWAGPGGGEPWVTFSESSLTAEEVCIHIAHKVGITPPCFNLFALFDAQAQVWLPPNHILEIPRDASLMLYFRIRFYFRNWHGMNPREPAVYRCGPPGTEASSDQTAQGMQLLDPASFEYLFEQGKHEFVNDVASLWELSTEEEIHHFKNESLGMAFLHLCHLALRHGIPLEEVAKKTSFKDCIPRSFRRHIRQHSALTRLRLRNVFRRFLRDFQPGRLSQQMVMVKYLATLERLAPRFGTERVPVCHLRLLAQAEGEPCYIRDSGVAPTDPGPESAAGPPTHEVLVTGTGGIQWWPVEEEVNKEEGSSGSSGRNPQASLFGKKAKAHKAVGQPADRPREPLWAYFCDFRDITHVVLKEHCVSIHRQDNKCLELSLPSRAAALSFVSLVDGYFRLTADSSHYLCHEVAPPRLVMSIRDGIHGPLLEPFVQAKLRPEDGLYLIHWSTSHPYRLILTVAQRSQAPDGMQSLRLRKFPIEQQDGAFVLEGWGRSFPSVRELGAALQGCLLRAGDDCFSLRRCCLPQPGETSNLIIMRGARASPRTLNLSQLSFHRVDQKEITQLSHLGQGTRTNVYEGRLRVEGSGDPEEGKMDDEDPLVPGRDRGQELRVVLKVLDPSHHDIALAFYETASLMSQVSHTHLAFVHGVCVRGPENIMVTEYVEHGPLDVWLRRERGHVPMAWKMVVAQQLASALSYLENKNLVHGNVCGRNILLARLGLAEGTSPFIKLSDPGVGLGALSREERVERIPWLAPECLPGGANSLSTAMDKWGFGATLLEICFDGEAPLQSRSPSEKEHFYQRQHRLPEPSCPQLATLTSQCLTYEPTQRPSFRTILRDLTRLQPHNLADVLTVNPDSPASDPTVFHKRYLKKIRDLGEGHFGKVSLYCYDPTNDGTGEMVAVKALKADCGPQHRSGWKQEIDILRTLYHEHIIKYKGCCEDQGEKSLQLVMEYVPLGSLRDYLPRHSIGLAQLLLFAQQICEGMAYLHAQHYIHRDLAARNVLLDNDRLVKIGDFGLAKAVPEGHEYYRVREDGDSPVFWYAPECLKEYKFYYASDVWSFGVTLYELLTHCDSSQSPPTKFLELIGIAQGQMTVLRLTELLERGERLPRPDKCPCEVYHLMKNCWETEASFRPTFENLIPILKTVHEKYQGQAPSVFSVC
Here the recorded IC50 is given for each entry.

For orientation, consider the following solved cases.
compound: Cc1cnc(Nc2cc(COC(=O)CCN3CCN(C)CC3)ns2)nc1-c1cnn(CC2(CF)CC2)c1 [CN1CCN(CC1)CCC(═O)OCC2═NSC]
observable: IC50
observed: < 10 nM

compound: COC(=O)c1ccc(Nc2ncc(Cl)c(-c3cnn(CC4(C#N)CC4)c3)n2)cn1 [COC(═O)C1═NC═C(NC2═NC(═C]
observable: IC50
observed: < 100 nM

compound: Cc1cc(Nc2ncc(Cl)c(-c3cnn(CCC#N)c3)n2)no1 [CC1═CC(═NO1)NC2═NC(═C]
observable: IC50
observed: < 100 nM

compound: Cc1cnc(Nc2cccc3c2CNC3=O)nc1-c1cnn(CC2(Cl)CC2)c1 [CC1═C(N═C(NC2═C3CNC]
observable: IC50
observed: < 100000 nM

compound: Cc1cnc(Nc2ccc(S(C)(=O)=O)cc2)nc1-c1cnn(CC2(Cl)CC2)c1 [CC1═C(N═C(NC2═CC═C(C═C2)[S]]
observable: IC50
observed: < 10 nM

compound: N#CCCn1cc(-c2nc(Nc3ccsc3)ncc2Cl)cn1 [ClC1═C(N═C(NC2═CSC═C2)N═C1)C3═C[N]]
observable: IC50
observed: < 100000 nM

Shifting focus to the compound that follows.
Sure, the documented IC50 for Cc1cnc(Nc2ccc(N3CCN(C)CC3)cc2)nc1-c1cnn(CC2(C#N)CC2)c1 [CN1CCN(CC1)C2═CC═C(NC3═NC(═C(C([2H])] is < 10 nM

====

Here the recorded IC50 is given for each entry.
molecular target: JAK2 (Homo sapiens, UniProt O60674); assay: JAK assay (KINASE-GLO luminescent kinase assay), JAK2; type: biochemical; conditions: 10 nM JAK enzyme, 800 nM Abl peptide, room temperature 75 min
Sequence (O60674 whole entry): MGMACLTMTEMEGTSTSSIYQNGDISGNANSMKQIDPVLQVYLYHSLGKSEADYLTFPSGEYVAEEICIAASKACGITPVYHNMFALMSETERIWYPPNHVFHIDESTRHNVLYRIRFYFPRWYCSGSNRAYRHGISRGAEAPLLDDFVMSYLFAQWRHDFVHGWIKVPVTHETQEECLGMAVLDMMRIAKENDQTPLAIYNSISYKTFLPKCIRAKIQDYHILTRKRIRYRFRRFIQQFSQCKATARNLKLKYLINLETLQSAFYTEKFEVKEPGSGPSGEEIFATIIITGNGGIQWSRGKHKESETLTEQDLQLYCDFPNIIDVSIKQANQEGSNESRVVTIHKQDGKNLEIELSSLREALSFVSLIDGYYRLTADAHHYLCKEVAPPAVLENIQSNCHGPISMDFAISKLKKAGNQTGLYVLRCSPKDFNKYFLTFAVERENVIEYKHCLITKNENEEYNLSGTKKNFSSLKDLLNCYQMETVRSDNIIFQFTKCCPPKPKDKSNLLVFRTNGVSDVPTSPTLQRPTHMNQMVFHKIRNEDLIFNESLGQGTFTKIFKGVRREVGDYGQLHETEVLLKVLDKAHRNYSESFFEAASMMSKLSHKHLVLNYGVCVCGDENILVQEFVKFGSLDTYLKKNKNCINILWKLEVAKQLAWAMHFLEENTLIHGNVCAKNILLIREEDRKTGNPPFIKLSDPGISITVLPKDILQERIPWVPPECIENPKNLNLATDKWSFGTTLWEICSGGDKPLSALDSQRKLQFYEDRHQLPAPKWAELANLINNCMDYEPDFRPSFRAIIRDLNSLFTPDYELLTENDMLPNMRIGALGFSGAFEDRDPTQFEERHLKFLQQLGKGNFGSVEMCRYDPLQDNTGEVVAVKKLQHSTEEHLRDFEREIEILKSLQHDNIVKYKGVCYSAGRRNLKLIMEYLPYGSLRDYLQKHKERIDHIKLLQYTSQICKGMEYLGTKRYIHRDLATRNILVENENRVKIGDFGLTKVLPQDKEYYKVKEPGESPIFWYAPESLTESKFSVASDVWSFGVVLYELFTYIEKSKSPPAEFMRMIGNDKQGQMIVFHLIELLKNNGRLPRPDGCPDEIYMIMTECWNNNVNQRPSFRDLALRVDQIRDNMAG

For orientation, consider the following solved cases.
compound: Cc1cc(Nc2nc3c(c(-c4cnn(CC5(C#N)COC5)c4)n2)CN(C(=O)OC(C)(C)C)C3)sn1
test-target: JAK2 (Homo sapiens, UniProt O60674)
IC50: > 50000 nM
//
compound: NCc1cccc(Nc2ncc(Cl)c(-c3cnn(CC4(CF)CC4)c3)n2)c1
test-target: JAK2 (Homo sapiens, UniProt O60674)
IC50: < 10 nM
//
compound: N#CCC1(Cn2cc(-c3nc(Nc4ccns4)ncc3C3CC3)cn2)CC1 [N#CCC1(CC1)C[N]2C═C(C═N2)C3═C]
test-target: JAK2 (Homo sapiens, UniProt O60674)
IC50: < 10 nM
//
compound: Cc1cnc(NCCN2CCCCC2)nc1-c1cnn(CCC#N)c1 [CC1═C(N═C(NCCN2CCCCC2)N═C1)C3═C[N]]
test-target: JAK2 (Homo sapiens, UniProt O60674)
IC50: > 50000 nM
//
compound: C=CCNc1ncc(C)c(-c2cnn(CCC#N)c2)n1 [CC1═C(N═C(NCC═C)N═C1)C2═C[N]]
test-target: JAK2 (Homo sapiens, UniProt O60674)
IC50: < 100000 nM
//
compound: N#CCCn1cc(-c2nc(Nc3cccc(CN4CC(F)C4)c3)ncc2Cl)cn1
test-target: JAK2 (Homo sapiens, UniProt O60674)
IC50: < 10 nM

Shifting focus to the compound that follows.
Sure, the documented IC50 for Cc1cnc(Nc2ccc(CO)c(CO)c2)nc1-c1cnn(CC2(CF)CC2)c1 is < 10 nM

====

target: JAK2 (Homo sapiens, UniProt O60674); assay: JAK assay (KINASE-GLO luminescent kinase assay), JAK2; type: biochemical; settings: 10 nM JAK enzyme, 800 nM Abl peptide, room temperature 75 min
observable: IC50

For orientation, consider the following solved cases.
compound: Cc1cnc(Nc2cccc(CNC(=O)CN(C)C)c2)nc1-c1cnn(CC2(CF)CC2)c1 [CN(C)CC(═O)NCC1═CC═CC(═C1)NC2═NC]
observable: IC50
observed: < 10 nM

compound: Cc1cnc(Nc2ccnc(OCCN(C)C)c2)nc1-c1cnn(CC2(CC#N)CC2)c1 [CN(C)CCOC1═CC(═CC═N1)NC2═NC(═C]
observable: IC50
observed: < 10 nM

compound: CS(=O)(=O)N(c1ncc(Cl)c(-c2cnn(CCC#N)c2)n1)S(C)(=O)=O [C[S](═O)(═O)NC1═NC(═C]
observable: IC50
observed: < 100000 nM

Shifting focus to the compound that follows.
Sure, the documented IC50 for Cc1cnc(Nc2ccc(C3CN(C(=O)OC(C)(C)C)C3)cc2)nc1-c1cnn(CCC#N)c1 [CC1═C(N═C(NC2═CC═C(C═C2)C3CN] is < 10 nM

====

Here the recorded IC50 is given for each entry.
biological target: JAK3 (Homo sapiens); experiment: JAK assay (KINASE-GLO luminescent kinase assay), JAK3; assay type: biochemical; settings: 10 nM JAK enzyme, 800 nM Abl peptide, room temperature 75 min

For orientation, consider the following solved cases.
compound: Cc1cnc(Nc2ccc(C(=O)NCCN(C)C)cc2)nc1-c1cnn(CC2(CF)CC2)c1 [CN(C)CCNC(═O)C1═CC═C(NC2═NC]
IC50: < 100 nM
--
compound: Cc1cnc(Nc2ccc(N3CC4(COC4)C3)cc2)nc1-c1cnn(CC2(CF)CC2)c1 [CC1═C(N═C(NC2═CC═C(C═C2)N3CC4]
IC50: < 10 nM
--
compound: Cc1cc(Nc2ncc(C)c(-c3cnn(CC4(CF)CCC4)c3)n2)sn1 [CC1═NSC(═C1)NC2═NC═C(C)C]
IC50: < 10 nM

Sure, the documented IC50 for N#CCCn1cc(-c2nc(Nc3cccc(CN4CC(F)C4)c3)ncc2Cl)cn1 [FC1CN(C1)CC2═CC═CC(═C2)NC3═NC(═C] is < 10 nM

Sure, the documented IC50 for Cc1cnc(Nc2ccc(CN3CCN(C)CC3)cc2)nc1-c1cnn(CC2(CF)CC2)c1 [CN1CCN(CC1)CC2═CC═C(NC3═NC] is < 100 nM

Sure, the documented IC50 for N#CC1(Cn2cc(-c3nc(Nc4cnc5ccnn5c4)ncc3Cl)cn2)CCC1 [ClC1═C(N═C] is < 1000 nM

Sure, the documented IC50 for CC(C)(C)OC(=O)N1CCC(Nc2ncc(Cl)c(-c3cnn(CCC#N)c3)n2)C(F)(F)C1 (stereo not drawn) [CC(C)(C)OC(═O)N1CCC(NC2═NC(═C] is > 50000 nM

Sure, the documented IC50 for Cc1cnc(Nc2cccc(C(=O)N(C)C)c2)nc1-c1cnn(CC2(CF)CC2)c1 [CN(C)C(═O)C1═CC(═CC═C1)NC2═NC] is < 100 nM

====

Target: TYK2 (Homo sapiens, UniProt P29597)
Experiment: JAK assay (KINASE-GLO luminescent kinase assay), TYK2
Assay type: biochemical
Conditions: 10 nM JAK enzyme, 800 nM Abl peptide, room temperature 75 min
Experimental: All compounds were initially prepared as 10 mM stocks in anhydrous dimethylsulfoxide (DMSO). […] Protein kinase activity was quantitated using Promega's KINASE-GLO™ luminescent Kinase Assay Kit according to the manufacturer's directions. […] Percent of Control (POC) values were determined for each concentration of compound tested according to the equation: [formula] • IC50 values were calculated using the following 4-parameter logistic curve-fitting algorithm: […]
Here the recorded IC50 is given for each entry.

molecule: COc1cnc(Nc2ccc(C3(O)COC3)cc2)nc1-c1cnn(CC2(CF)CC2)c1
observed: < 100 nM
//
molecule: Cc1cnc(Nc2ccc3c(c2)OCCN3C)nc1-c1cnn(CC2(CF)CC2)c1
observed: < 100 nM

Shifting focus to the molecule that follows.
With TYK2 (Homo sapiens, UniProt P29597) as the test system, N#CC1(Cn2cc(-c3nc(Nc4ccns4)ncc3Cl)cn2)CCC1 [ClC1═C(N═C(NC2═CC═NS2)N═C1)C3═C[N]] showed IC50 of < 100 nM
